So I've got a bunch of compounds here, and I need their MIC values.
- Test system: Mycobacterium tuberculosis
- EXPERIMENT: Antimycobacterial activity against rifampicin-resistant Mycobacterium tuberculosis ATCC 35338 harboring rpoB His-526-Tir gene mutant after 7 days by REMA assay
- Type: functional
One number for each entry, in µg/mL.

Give measured MIC for every item shown.
1. CCCCCCCC/C=C\CCCCCCCC(=O)NNC(=O)c1ccncc1
2. CCCCCC[C@@H](O)C/C=C\CCCCCCCC(=O)NNC(=O)c1ccncc1

[0.003, 0.015]

Give measured MIC for every item shown.
1. CCCCCCCC/C=C/CCCCCCCC(=O)NNC(=O)c1ccncc1
2. CC/C=C\C/C=C\C/C=C\CCCCCCCC(=O)NNC(=O)c1ccncc1
3. CCCCC/C=C\C/C=C\CCCCCCCC(=O)NNC(=O)c1ccncc1

[0.0019, 0.03, 0.03]

---

- Tested on: Mycobacterium tuberculosis
- EXPERIMENT: Antimycobacterial activity against rifampicin-resistant Mycobacterium tuberculosis ATCC 35338 harboring rpoB His-526-Tir gene mutant after 7 days by REMA assay
- Type: functional
ASSAY METRIC: MIC (µg/mL)
One number for each entry, in µg/mL.

The examples below pair each entry with its known result.
- MOLECULE: "NNC(=O)c1ccncc1 [ISONIAZID]"
  QUANTITY UNIT: "µg/mL"
  MIC: 0.015
- MOLECULE: "CCCCCCCCCCCCCCCC(=O)NNC(=O)c1ccncc1"
  QUANTITY UNIT: "µg/mL"
  MIC: 0.003
- MOLECULE: "CCCCCCCC/C=C\\CCCCCCCC(=O)NN [OLEOHYDRAZIDE]"
  QUANTITY UNIT: "µg/mL"
  MIC: 50

// next item, MIC requested
Which value of MIC has been reported for "CCCCCCCCCCCCCCCCCC(=O)NNC(=O)c1ccncc1" in the records?
0.003
